- Assay target: T1, hMC5-R (human, UniProt P33032 1-325)
- T1 construct: whole, on cells; Assayed as membranes of CHO-K1 cells expressing the receptor; also called hMC-R receptor subtype 5; melanocortin-5 receptor (MC5-R)
- T1 sequence (P33032 whole entry): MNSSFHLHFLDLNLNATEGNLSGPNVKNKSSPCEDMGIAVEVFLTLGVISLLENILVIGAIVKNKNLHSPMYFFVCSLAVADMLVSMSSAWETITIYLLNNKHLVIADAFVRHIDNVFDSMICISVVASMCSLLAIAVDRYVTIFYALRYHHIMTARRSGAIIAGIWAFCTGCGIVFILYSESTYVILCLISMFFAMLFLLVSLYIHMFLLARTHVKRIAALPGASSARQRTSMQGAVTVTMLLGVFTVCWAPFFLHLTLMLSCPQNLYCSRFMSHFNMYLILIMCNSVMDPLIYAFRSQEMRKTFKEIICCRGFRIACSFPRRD
- Method: competition with [125I]-NDP-α-MSH, CHO-K1 membranes
Bridge positions count the residues as written; N and C are the ends. Square brackets hold non-standard residues; d marks the D form. 2Nal = N[C@@H](Cc1ccc2ccccc2c1)C(=O)O; hPhe = N[C@@H](CCc1ccccc1)C(=O)O; dChg = N[C@@H](C(=O)O)C1CCCCC1; GABA = NCCCC(=O)O
Quantity name: Ki
Provide a numeric answer, followed by its unit.

Would you mind telling me what Ki value was observed for Ac-[hPhe]DH[dF]RW[GABA]K-NH2 (lactam 2-8) [Ac-hPhe-c(Asp-His-D-Phe-Arg-Trp-Gaba-Lys)-NH2] ? 203 nM

Same read-out for Ac-C[dA]H[dF]R[2Nal]AC-NH2 (disulfide 1-8; SMILES CC(=O)N[C@H]1CSSC[C@@H](C(N)=O)NC(=O)[C@H](C)NC(=O)[C@H](Cc2ccc3ccccc3c2)NC(=O)[C@H](CCCNC(=N)N)NC(=O)[C@@H](Cc2ccccc2)NC(=O)[C@H](Cc2c[nH]cn2)NC(=O)[C@@H](C)NC1=O) [Ac-c(Cys-D-Ala-His-D-Phe-Arg-2-Nal-Ala-Cys)-NH2] ? 8810 nM

Same read-out for Ac-[dChg]DH[dF]RW[GABA]K-NH2 (lactam 2-8) [Ac-D-Chg-c(Asp-His-D-Phe-Arg-Trp-Gaba-Lys)-NH2] ? 164 nM
